Tested on: BCL2 G101V
Test: TR-FRET competitive binding assay, BCL2 G101V
Design: species or system human
Details: ratio of Ki BCL2 G101V to BCL2 WT
Binary call on TR_FRET EKI G101V/WT selectivty with cut-off 30: strictly below means t, and equality or higher means f.

>  <SUBSTANCE SMILES>
Cc1cc(OCCN2CCOCC2)c(F)cc1CC(=O)N1CCc2cc(-c3cc(C(=O)N(c4ccccc4)c4cnn(C)c4)c(C)n3C)c(C(=O)N3Cc4ccccc4C[C@H]3C)cc2C1

>  <ASSAYED TARGET>
BCL2 G101V

>  <LABEL>
f

$$$$
>  <SUBSTANCE SMILES>
Cc1c(N(C(=O)c2cc(-c3cc4c(cc3C(=O)N3Cc5ccccc5C[C@H]3C)CN(C(=O)Cc3ccc(OCCN5CCOCC5)cc3)CC4)n(C)c2C)c2ccccc2)cc(C#N)n1C

>  <ASSAYED TARGET>
BCL2 G101V

>  <LABEL>
t

$$$$
>  <SUBSTANCE SMILES>
Cc1c(C(=O)N(c2ccccc2)c2cnn(C)c2)cc(-c2cc3c(cc2C(=O)N2Cc4ccccc4C[C@H]2C)CN(C(=O)Cc2ccc(OCCN(C)C)cc2F)CC3)n1C

>  <ASSAYED TARGET>
BCL2 G101V

>  <LABEL>
f

$$$$
>  <SUBSTANCE SMILES>
Cc1c(C(=O)N(c2ccccc2)c2cc(F)cc(C#N)c2)cc(-c2cc3c(cc2C(=O)N2Cc4ccccc4C[C@H]2C)CN(C(=O)Cc2ccc(OCCN4CCOCC4)cc2)CC3)n1C

>  <ASSAYED TARGET>
BCL2 G101V

>  <LABEL>
f

$$$$
>  <SUBSTANCE SMILES>
Cc1c(N(C(=O)c2cc(-c3cc4c(cc3C(=O)N3Cc5ccccc5C[C@H]3C)CN(C(=O)Cc3ccc(OCCN5CCOCC5)cc3F)CC4)n(C)c2C)c2ccccc2)cc(C#N)n1C

>  <ASSAYED TARGET>
BCL2 G101V

>  <LABEL>
t

$$$$
